Each record here notes measured Classification.
- measured_target: T1, GST-ZO-2 PDZ domain 1 (Homo sapiens (Human)), Q9UDY2
- T1 chain: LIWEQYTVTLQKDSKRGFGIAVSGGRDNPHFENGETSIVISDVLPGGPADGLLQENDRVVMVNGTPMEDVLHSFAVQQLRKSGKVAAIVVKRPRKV
- assay_procedure: G' assay; also: key of the grades not given here
Field: numeric (A450 class). Do not append units.

[
  {
    "binder": "TREDIYVNYPTFSRRPKTRV (modifications not checked) [DNAM-1]",
    "Classification / A450 class": 3
  },
  {
    "binder": "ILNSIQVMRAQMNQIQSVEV (modifications not checked) [ephrin B2]",
    "Classification / A450 class": 1
  },
  {
    "binder": "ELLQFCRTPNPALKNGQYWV (modifications not checked) [CSPG4 (chondroitin sulfae proteoglycan 4, melanoma-associated)]",
    "Classification / A450 class": 5
  },
  {
    "binder": "PPATPSPRLALPAHHNATRL (modifications not checked) [Na+/Pi cotransporter 2]",
    "Classification / A450 class": 1
  },
  {
    "binder": "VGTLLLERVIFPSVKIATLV (modifications not checked) [AdenoE4 typ9]",
    "Classification / A450 class": 3
  }
]

Next item in the queue.
Prompt: Entry GPVPGEPAKPKTSAHHATFV (modifications not checked) [RGS12 (regulator of G-protein signaling 12] needs its Classification filled in; supply it.
Response: 1
